B1: ZNF207 (parent)
chain: YQGGPPRPPMGMRPPVMSQGGRY

Variants of: B1
ASSAY_EXPLANATION: protein stability index of a GFP-peptide fusion (GPS, HEK-293T) (PSI 1-6); higher = more stable;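 also: lentivirally expressed fusions sorted by FACS into six bins by GFP to DsRed ratio, PSI derived from sequencing read proportions per bin multiplied by bin number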
MEASUREMENT_CONDITIONS: c terminus: native
Would you mind telling me the reported protein stability index of each entry?
Reply: number alone, nothing else.

### Prompt Could you tell me which protein stability index is on file for YQGGPMRPPMGMRPPVMSQGGRY [P6M] ?
### Response 2.19

### Prompt Could you tell me which protein stability index is on file for YQGGPPRPPMNMRPPVMSQGGRY [G11N] ?
### Response 1.97

### Prompt Could you tell me which protein stability index is on file for YQGGPPRPPMGMRPPVMSQSGRY [G20S] ?
### Response 1.67

### Prompt Could you tell me which protein stability index is on file for YQGGPPRPAMGMRPPVMSQGGRY [P9A] ?
### Response 1.83
